molecular target: T1, HLA-DR1 molecule (DRB1*0101) (human); test: competition ELISA vs biotin-HA 306-318
T1 chain 1: not shown
T1 chain 2: not shown
pIC50: −log10 of the molar value.
pIC50 values, listed per item
Property Label: pIC50

INSERT INTO measurements (binder, result) VALUES
  ('DLLIRCINCQKPLCPEEKQRHL (modifications not checked) [E6(105-126)]', 5.76),
  ('KCDSTLRLCVQSTHV (modifications not checked) [E7(60-74)]', 5.30),
  ('LRLCVQSTHVDIRTLEDLLMGTL (modifications not checked) [E7(65-87)]', 6.19),
  ('QQYNKPLCDLLIRCI (modifications not checked) [E6 97-111]', 6.24),
  ('MHGDTPTLHEYMLDLQPETT (modifications not checked) [E7(1-20)]', 5.60),
  ('LCVQSTHVDIRTLED (modifications not checked) [E7 67-81]', 5.15),
  ('LRLCVQSTHVDIRTL (modifications not checked) [E7 65-79]', 6.12),
  ('PTLHEYMLDLQPETT (modifications not checked) [E7 6-20]', 6.12),
  ('RDLCIVYRDGNPYAV (modifications not checked) [E6 55-69]', 5.82),
  ('HLDKKQRFHNIRGR (modifications not checked) [E6 124-138]', 8.00),
  ('SEYRHYCYSLYGTTL (modifications not checked) [E6 81-95]', 8.00),
  ('QRFHNIRGRWTGRCM (modifications not checked) [E6 130-144]', 8.40),
  ('EKQRHLDKKQRFHNIRGRWT (modifications not checked) [E6(121-140)]', 6.90),
  ('FYSKISEYRHYCYSL (modifications not checked) [E6 76-90]', 6.90),
  ('ERPRKLPQLCTELQTTIHDII (modifications not checked) [E6(14-34)]', 5.46);
